Target: T1, P3bH1
T1 chain: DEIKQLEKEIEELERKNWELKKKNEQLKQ
Assay: two-hybrid library CCNG1;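 further: natural log of median RNA to DNA barcode read ratio; higher means stronger binding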
property measured: interaction score

1 = DKNKQLKKENEELERKIWELKKKIEQLKQ [P10bH1]
2 = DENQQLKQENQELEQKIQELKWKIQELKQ [4H1710-bN]
3 = DKIKQLKKKNEELKRKNWELKKKIEQLKQ [P2bH1]
4 = DEIKQLEKENEELERENWELEKEIEQLEQ [P1bH1]
# input Arrange items by their interaction score values in increasing order. Give your ranking as a list of the labels in the requested order.
# output 2, 4, 3, 1
(2: -2.08, 4: -1.08, 3: -0.234, 1: 1.35)

P = DEIKQLEKEIEELERKNWELKKKNEQLKQ [P3bH1]
Q = DKNKQLKKKIEELKRKIWELKKENEQLEQ [P12bH1]
# input Compare P and Q and name the one whose reported interaction score is smaller. Answer format: the label of the selected item.
# output Q
(Q: -1.43, P: -0.241)

The measured values listed here are drawn from paper PMC10397247.
